Experiment: non-covalent RecA intein splicing inhibitors, dose response, biochemical, cell-free, fluorescence, secondary screen (AID 449750)
Active and inactive are the calls of the source. No rule for the calls is given here.
Labels: active, inactive

{"compound": "CN(Cc1ccc(Cl)cc1)C(=O)CCl", "category": "active"}
{"compound": "CCCc1[nH]nc2c1C(c1ccc(OC)cc1OC)C(C#N)=C(N)O2 (configuration not stated)", "category": "active"}
{"compound": "CCc1ccc(S(=O)(=O)/N=C2\\C=CC(=O)c3ccccc32)cc1", "category": "active"}
{"compound": "CC1=NN(c2ccc(C(=O)O)c(N)c2)C(=O)C1", "category": "active"}
{"compound": "COc1cc(/C=C2\\C(=O)N(c3ccc(NC(C)=O)cc3)N=C2c2ccccc2)ccc1O", "category": "inactive"}
{"compound": "CCOC(=O)c1c(NC(=O)/C=C/C(=O)O)sc(C)c1-c1ccc(C)c(C)c1", "category": "active"}
{"compound": "COc1ccc(NC(=O)c2cccc(N3C(=O)C4C5C=CC(C5)C4C3=O)c2)cc1Cl (configuration not stated)", "category": "inactive"}
{"compound": "O=C(c1cccs1)[C@@H]1[C@@H]2C(=O)N(Cc3ccc4c(c3)OCO4)C(=O)[C@@H]2C2c3ccccc3C=CN21 (some centres not stated)", "category": "active"}
{"compound": "O=C(Nc1ccc(Cl)c(Cl)c1)Nc1ccccc1NS(=O)(=O)c1cccs1", "category": "active"}
{"compound": "CN(CCO)c1cc(Sc2nc3ccccc3s2)c2nonc2c1[N+](=O)[O-]", "category": "active"}
{"compound": "Cc1cc[n+](C2=C([O-])c3ccccc3C(=O)/C2=N\\S(=O)(=O)c2cccs2)cc1C", "category": "active"}
{"compound": "Cc1ccc2nc(/C(C#N)=C\\c3ccc([N+](=O)[O-])o3)[nH]c2c1", "category": "inactive"}
{"compound": "COc1ccccc1-c1c(C)oc2cc(OC(=O)c3ccco3)ccc2c1=O", "category": "inactive"}
{"compound": "O=Nc1c(O)c2ccccc2c2ccccc12", "category": "active"}
{"compound": "C=CCn1c(-c2cccnc2Cl)nc2ccccc21", "category": "inactive"}
{"compound": "Oc1ccc(C=Nc2ccc3ncccc3c2)c(O)c1", "category": "active"}
{"compound": "CCOc1ccc(CN2CCN(CC3=Cc4cccc(OC)c4OC3)CC2CCO)cc1 (configuration not stated)", "category": "inactive"}
{"compound": "CC1=NN(c2ccccc2)C(=O)/C1=C/c1ccc(Cl)cc1", "category": "active"}
{"compound": "CC(C)(C)c1ccc(/C=C(\\c2nc3ccccc3[nH]2)S(=O)(=O)c2ccccc2)cc1", "category": "active"}
{"compound": "CN(C)c1ccc2nsnc2c1[N+](=O)[O-]", "category": "inactive"}
{"compound": "O=[N+]([O-])c1ccc(N2CCOCC2)c2ccncc12", "category": "inactive"}
{"compound": "COC(=O)c1c(C)oc2ccc(N(C(=O)c3ccncc3)S(=O)(=O)c3ccc4ccccc4c3)cc12", "category": "inactive"}

====

Test: non-covalent RecA intein splicing inhibitors, dose response, biochemical, cell-free, fluorescence, secondary screen (AID 449750)
Activity calls are given as the source filed them. The rule behind the calls is not given here.
Labels: active, inactive

{"compound": "NNc1n[nH]c(=S)n1N", "category": "active"}
{"compound": "O=C1C(Cc2ccccc2)Nc2ncnc(N3CCc4ccccc4C3)c2N1Cc1ccc(Cl)cc1 (stereo unspecified)", "category": "inactive"}
{"compound": "Cc1ccc(NC2=C(NCCO)C(=O)c3ccccc3C2=O)cc1", "category": "active"}
{"compound": "CC1=NN(c2ccccc2)C(=O)C1/C=C1\\C(=O)NC(=O)N(c2ccc(C)c(C)c2)C1=O (stereo unspecified)", "category": "active"}
{"compound": "COc1cc(C(c2c(C)[nH][nH]c2=O)c2c(C)[nH][nH]c2=O)cc([N+](=O)[O-])c1O", "category": "active"}
{"compound": "CCSC1(SCC)N=C(N)C2(C#N)C(c3ccc(F)cc3)C12C#N (stereo unspecified)", "category": "active"}
{"compound": "CCc1nnc(NC(=O)c2nc(S(=O)(=O)Cc3cccc(C)c3)ncc2Cl)s1", "category": "inactive"}
{"compound": "Cc1ccc(NC(=O)C(CC(C)C)NC(N)=O)cc1 (stereo unspecified)", "category": "inactive"}
{"compound": "O=C(CCl)N1N=C(c2ccco2)CC1c1cccs1 (stereo unspecified)", "category": "active"}
{"compound": "CCCCCCCCCCC[N+](C)(C)CC/C=C1/c2ccccc2Sc2ccc(Cl)cc21", "category": "active"}
{"compound": "CCC(=O)Oc1ccc(C(=O)Nc2cccc(C(=O)c3ccccc3)c2)cc1", "category": "active"}

====

Test: non-covalent RecA intein splicing inhibitors, dose response, biochemical, cell-free, fluorescence, secondary screen (AID 449750)
Activity calls are given as the source filed them. No rule for the calls is given here.
Labels: 1 = active, 0 = inactive

{"compound": "Cc1ccc(N2C(=O)C(Cl)=C(NCCO)C2=O)c(C)c1", "category": 0}
{"compound": "COc1cccc(C(=O)Nc2nc(SCc3ccc(Cl)cc3)n[nH]2)c1", "category": 0}
{"compound": "O=C(CCl)N(Cc1cccc([N+](=O)[O-])c1)c1cccc(Cl)c1", "category": 1}
{"compound": "COc1ccc(/C=C/C(=O)c2ccccc2)cc1COc1ccc(F)cc1", "category": 1}
{"compound": "COc1cc(C(c2c(C)[nH][nH]c2=O)c2c(C)[nH][nH]c2=O)ccc1OS(=O)(=O)c1ccc(C)cc1", "category": 1}
{"compound": "CN(C1=C(NC(=O)c2ccccc2)C(=O)c2ccccc2C1=O)C1CCS(=O)(=O)C1 (configuration not stated)", "category": 1}
{"compound": "CCc1ccccc1N1C(=O)C(Cl)=C(N2CCOCC2)C1=O", "category": 0}
{"compound": "CCCc1noc2c1C(c1ccoc1)C(C#N)=C(N)N2 (configuration not stated)", "category": 0}
{"compound": "Cc1[nH][nH]c(=O)c1C(c1ccc([N+](=O)[O-])cc1)c1c(C)[nH][nH]c1=O", "category": 1}
{"compound": "Cc1cnnn1-c1ccc(C(=O)CCl)cc1", "category": 0}
{"compound": "Cc1ccc(Sc2c([N+](=O)[O-])ncn2C)cc1", "category": 0}
{"compound": "Cn1nc(-c2ccc(Cl)cc2)nc2c(=O)n(C)c(=O)nc1-2", "category": 1}
{"compound": "Cc1ccc(S(=O)(=O)/N=C2\\C=C(Nc3cccc(C(=O)O)c3)C(=O)c3ccccc32)c(C)c1", "category": 0}
{"compound": "FC(F)(F)c1ccc2c(c1)N(CCCN1CCN(CCCl)CC1)c1ccccc1S2", "category": 1}
{"compound": "CC1=NN(c2ccccc2)C(=O)/C1=C\\c1cn(C)c2ccccc12", "category": 0}
{"compound": "COc1ccccc1/C=C1/C(=O)N(c2ccccc2)N=C1C", "category": 0}
{"compound": "CC(C)Oc1cccc(C(=O)C2CCCN(C(=O)c3csnn3)C2)c1 (configuration not stated)", "category": 0}
{"compound": "O=[N+]([O-])c1cc(S(=O)(=O)C(F)(F)F)ccc1Sc1nc2ccccc2[nH]1", "category": 1}
{"compound": "COC(=O)c1cc(C)nc2c1C(=O)C(=O)C=C2N1CCOCC1", "category": 1}
{"compound": "c1ccc(Nc2nc(NCc3ccco3)c3ccccc3n2)cc1", "category": 1}
{"compound": "O=C1C=C(Nc2ccccc2)c2ccccc2C1=O", "category": 1}
{"compound": "CCn1c2ccccc2c2cc(C3C(C#N)=C(N)Oc4n[nH]c(COC)c43)ccc21 (configuration not stated)", "category": 1}

====

Assay: non-covalent RecA intein splicing inhibitors, dose response, biochemical, cell-free, fluorescence, secondary screen (AID 449750)
Activity calls are given as the source filed them. The rule behind the calls is not given here.
quantity_name: AC50

{"molecule": "CCCCCc1cc(=O)oc2c(C(CCN3CCCC(C)C3)c3ccc(OC)cc3)c(OC)cc(OC)c12 (stereo unspecified)", "quantity_name": "AC50", "result": "10.1 µM"}
{"molecule": "Cc1cccc(CS(=O)(=O)c2ncc(Cl)c(C(=O)Nc3ccc(F)cc3)n2)c1", "quantity_name": "AC50", "result": "> 38 µM (inactive)"}
{"molecule": "O=[N+]([O-])c1cncc([N+](=O)[O-])c1Nc1cccc(O)c1", "quantity_name": "AC50", "result": "> 38 µM (inactive)"}
{"molecule": "COc1cccc(NC(=O)c2nc(S(C)(=O)=O)ncc2Cl)c1", "quantity_name": "AC50", "result": "> 38 µM (inactive)"}
{"molecule": "O=c1cc(-c2ccccc2)[nH]n1-c1ccc([N+](=O)[O-])cc1", "quantity_name": "AC50", "result": "13.1 µM"}
{"molecule": "COC(=O)CC1(c2cccc3ccccc23)C(=O)c2ccccc2C1=O", "quantity_name": "AC50", "result": "19.1 µM"}
{"molecule": "O=S(=O)(CCSc1ccccn1)c1nc2ccccc2s1", "quantity_name": "AC50", "result": "> 38 µM (inactive)"}
{"molecule": "CCc1ccc(S(=O)(=O)/N=C2\\C=C(NS(=O)(=O)c3ccccc3)C(=O)c3ccccc32)cc1", "quantity_name": "AC50", "result": "4.45 µM"}
{"molecule": "CC(C)S(=O)(=O)C1=NSC2=NC(=O)/C(=C\\c3ccc(OC(=O)c4ccco4)cc3)C(=N)N21", "quantity_name": "AC50", "result": "30.6 µM"}
{"molecule": "CC(C)(C)c1[nH]nc2c1C(Cc1ccccc1)C(C#N)=C(N)O2 (stereo unspecified)", "quantity_name": "AC50", "result": "> 38 µM (inactive)"}
{"molecule": "O=C(NCc1ccc2c(c1)OCO2)c1nc(S(=O)(=O)Cc2ccccc2)ncc1Cl", "quantity_name": "AC50", "result": "> 38 µM (inactive)"}
{"molecule": "CS(=O)(=O)C1=NN2C(=N)/C(=C\\c3ccc(OC(=O)c4ccco4)cc3)C(=O)N=C2S1", "quantity_name": "AC50", "result": "> 38 µM (inactive)"}
{"molecule": "Cc1ccc(-c2nnc(Sc3nc4ccccc4o3)c3ccccc23)cc1", "quantity_name": "AC50", "result": "4.13 µM"}
{"molecule": "Cc1ccc(SCc2[nH]nc3c2C(c2ccco2)C(C#N)=C(N)O3)cc1 (stereo unspecified)", "quantity_name": "AC50", "result": "14.8 µM"}
{"molecule": "COc1ccc(C2NC(c3ccc(OC)cc3OC)C(C)C(=O)C2C)c(OC)c1 (stereo unspecified)", "quantity_name": "AC50", "result": "> 38 µM (inactive)"}
{"molecule": "CC1CCCN(C(=O)COc2ccc(NC(=O)c3cccs3)cc2)C1 (stereo unspecified)", "quantity_name": "AC50", "result": "> 38 µM (inactive)"}
{"molecule": "Cc1nc2ccccc2c2c1C(=O)NC2=O", "quantity_name": "AC50", "result": "> 38 µM (inactive)"}
{"molecule": "Cc1ccc([N+](=O)[O-])cc1S(=O)(=O)N(C(=O)c1ccncc1)c1ccc2oc3c(c2c1)CCCC3", "quantity_name": "AC50", "result": "> 38 µM (inactive)"}
{"molecule": "COc1ccc2noc3c2c1C(=O)c1ccccc1-3", "quantity_name": "AC50", "result": "24.8 µM"}
{"molecule": "O=S(=O)(Nc1cc2nc3ccccc3nc2n1Cc1ccccc1)c1ccc(Cl)cc1", "quantity_name": "AC50", "result": "5.18 µM"}
{"molecule": "CCCCCCCCCC[N+](C)(C)CC/C=C1/c2ccccc2Sc2ccc(Cl)cc21", "quantity_name": "AC50", "result": "5.09 µM"}
